- Test system: Hh signaling pathway (8 × Gli-binding site luciferase reporter, Shh-LIGHT2 cells)
- assay_remarks: Dual-luciferase reporter assay in Shh-LIGHT2 cells
- Type: cell-based
- condition_summary: Shh Light2, 36 h, ShhN-conditioned medium, 36 h, mean ± SD for three independent experiments
pIC50: −log10 of the molar value.
reported_metric: pIC50

[
  {
    "molecule": "Nc1nc(NCCN2CCOCC2)nc(NCc2ccco2)c1[N+](=O)[O-]",
    "reported": 5.59
  },
  {
    "molecule": "Nc1nc(Nc2cccc(F)c2)nc(NCc2ccco2)c1[N+](=O)[O-]",
    "reported": 5.62
  },
  {
    "molecule": "O=C(C[C@@H]1C/C=C/CCC(=O)O[C@H](c2ccccc2)CNC1=O)NCc1ccc(Cl)cc1",
    "reported": 5.36
  },
  {
    "molecule": "Nc1nc(Nc2ccc(Cl)cc2)nc(NCc2ccco2)c1[N+](=O)[O-]",
    "reported": 5.68
  },
  {
    "molecule": "OC(CNCc1ccc2c(c1)OCO2)COc1ccc(-c2csnn2)cc1 (stereo not drawn)",
    "reported": 5.77
  },
  {
    "molecule": "OCCCNCC(O)Cn1c2ccc(Br)cc2c2cc(Br)ccc21 (stereo not drawn)",
    "reported": 5.70
  },
  {
    "molecule": "CCN(CC)S(=O)(=O)c1ccc(C(=O)Nc2sc3c(c2C(N)=O)CCN(C)C3)cc1",
    "reported": 5.57
  },
  {
    "molecule": "Nc1nc(Nc2ccccc2F)nc(NCc2ccco2)c1[N+](=O)[O-]",
    "reported": 5.23
  },
  {
    "molecule": "Nc1nc(NCCCN2CCOCC2)nc(NCc2ccco2)c1[N+](=O)[O-]",
    "reported": 5.66
  },
  {
    "molecule": "CCOC(=O)c1c(C)n(-c2ccc(C)cc2)c2ccc(OCC(O)CNCCCO)cc12 (stereo not drawn)",
    "reported": 5.85
  },
  {
    "molecule": "c1ccc(COC(CNC2CCCCC2)CNC2CCCCC2)cc1",
    "reported": 5.66
  },
  {
    "molecule": "CCN1CCN(c2nc(Nc3cccc(Cl)c3)c3cnn(-c4ccccc4)c3n2)CC1",
    "reported": 6.22
  },
  {
    "molecule": "N#Cc1c(N)nc(NCCCN2CCOCC2)nc1-c1ccc(Cl)cc1",
    "reported": 5.92
  },
  {
    "molecule": "c1ccc(Nc2nc(NC3CCCCCC3)nc3c2cnn3-c2ccccc2)cc1",
    "reported": 5.80
  },
  {
    "molecule": "Cc1cc(C)c(CSC2=NCCN2)c(C)c1CSC1=NCCN1",
    "reported": 5.64
  },
  {
    "molecule": "Nc1nc(NCC2CCCO2)nc(NCc2ccco2)c1[N+](=O)[O-] (stereo not drawn)",
    "reported": 5.49
  },
  {
    "molecule": "CCOc1ccc(Nc2nc(N)c([N+](=O)[O-])c(NCc3ccco3)n2)cc1",
    "reported": 5.70
  }
]
